Target: Protein cereblon/Glycogen synthase kinase-3 beta (Homo sapiens, UniProt P49841+Q96SW2)
Sequence (P49841 whole entry, looked up): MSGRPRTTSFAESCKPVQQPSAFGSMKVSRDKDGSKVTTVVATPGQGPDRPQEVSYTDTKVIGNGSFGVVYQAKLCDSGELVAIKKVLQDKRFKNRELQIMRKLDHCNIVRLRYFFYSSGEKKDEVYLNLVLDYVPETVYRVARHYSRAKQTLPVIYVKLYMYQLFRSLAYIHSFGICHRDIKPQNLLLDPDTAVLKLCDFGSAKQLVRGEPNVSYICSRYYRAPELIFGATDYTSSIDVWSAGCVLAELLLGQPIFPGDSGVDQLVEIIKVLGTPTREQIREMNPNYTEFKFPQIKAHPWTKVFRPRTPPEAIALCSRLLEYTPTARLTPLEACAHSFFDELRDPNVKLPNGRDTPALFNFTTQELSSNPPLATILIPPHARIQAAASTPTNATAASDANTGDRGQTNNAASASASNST
Sequence (Q96SW2 whole entry, looked up): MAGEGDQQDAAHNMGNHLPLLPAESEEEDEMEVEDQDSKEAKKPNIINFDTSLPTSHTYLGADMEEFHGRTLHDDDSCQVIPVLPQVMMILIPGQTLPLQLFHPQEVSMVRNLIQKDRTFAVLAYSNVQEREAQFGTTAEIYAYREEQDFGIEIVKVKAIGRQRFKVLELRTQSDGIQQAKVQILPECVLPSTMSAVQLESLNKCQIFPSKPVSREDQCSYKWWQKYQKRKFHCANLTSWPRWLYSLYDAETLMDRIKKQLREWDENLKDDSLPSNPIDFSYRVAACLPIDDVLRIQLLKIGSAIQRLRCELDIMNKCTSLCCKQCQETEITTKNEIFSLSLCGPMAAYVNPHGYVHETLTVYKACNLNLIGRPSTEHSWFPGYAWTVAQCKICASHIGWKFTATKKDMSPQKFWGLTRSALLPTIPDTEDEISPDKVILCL
Experiment: Protac activity at CRBN/GSK3beta in human SH-SY5Y cells assessed as induction of GSK3beta degradation at 1 uM measured after 24 hrs
Format: cell-based
Please provide measured Activity for the entries that follow.
One number for each entry, in %.

compound	test system	endpoint result
COc1ccc(-c2ocnc2C(=O)NCCCc2cn(CCOCCOCCOCCOCCOCCNc3cccc4c3C(=O)N(C3CCC(=O)NC3=O)C4=O)nn2)cc1I (centres undefined)	Protein cereblon/Glycogen synthase kinase-3 beta (Homo sapiens, UniProt P49841+Q96SW2)	56.5
Nc1ncc(-c2ccc(S(=O)(=O)N3CCN(CCc4cn(CCOCCOCCOCCNc5cccc6c5C(=O)N(C5CCC(=O)NC5=O)C6=O)nn4)CC3)cc2)nc1C(=O)Nc1cccnc1 (centres undefined)	Protein cereblon/Glycogen synthase kinase-3 beta (Homo sapiens, UniProt P49841+Q96SW2)	79.1
COc1ccc(-c2ocnc2C(=O)NCCCc2cn(CCOCCOCCOCCNc3cccc4c3C(=O)N(C3CCC(=O)NC3=O)C4=O)nn2)cc1Cl (centres undefined)	Protein cereblon/Glycogen synthase kinase-3 beta (Homo sapiens, UniProt P49841+Q96SW2)	36.8
COc1ccc(-c2ocnc2C(=O)NCCCn2cc(COCCOCCOCCOc3cccc4c3CN(C3CCC(=O)NC3=O)C4=O)nn2)cc1Cl (centres undefined)	Protein cereblon/Glycogen synthase kinase-3 beta (Homo sapiens, UniProt P49841+Q96SW2)	14.5
COc1ccc(-c2ocnc2C(=O)NCCCc2cn(CCOCCOCCOCCNc3cccc4c3C(=O)N(C3CCC(=O)NC3=O)C4=O)nn2)cc1I (centres undefined)	Protein cereblon/Glycogen synthase kinase-3 beta (Homo sapiens, UniProt P49841+Q96SW2)	22.8

Hey, can you go through the list below and give me Activity for every item?
1. Nc1ncc(-c2ccc(S(=O)(=O)N3CCN(CCc4cn(CCOCCOCCOCCOCCNc5cccc6c5C(=O)N(C5CCC(=O)NC5=O)C6=O)nn4)CC3)cc2)nc1C(=O)Nc1cccnc1 (centres undefined)
2. COc1ccc(-c2ocnc2C(=O)NCCCc2cn(CCOCCOCCOCCOCCOCCNc3cccc4c3C(=O)N(C3CCC(=O)NC3=O)C4=O)nn2)cc1Cl (centres undefined)
3. Nc1ncc(-c2ccc(S(=O)(=O)N3CCN(Cc4cn(CCOCCOCCNc5cccc6c5C(=O)N(C5CCC(=O)NC5=O)C6=O)nn4)CC3)cc2)nc1C(=O)Nc1cccnc1 (centres undefined)

83.1
54.6
39.6

Report Activity for each item below.
1. Nc1ncc(-c2ccc(S(=O)(=O)N3CCN(CCc4cn(CCOCCOCCOCCOCCOCCOCCNc5cccc6c5C(=O)N(C5CCC(=O)NC5=O)C6=O)nn4)CC3)cc2)nc1C(=O)Nc1cccnc1 (centres undefined)
2. COc1ccc(-c2ocnc2C(=O)NCCCc2cn(CCOCCOCCOCCOCCNc3cccc4c3C(=O)N(C3CCC(=O)NC3=O)C4=O)nn2)cc1I (centres undefined)
3. Nc1ncc(-c2ccc(S(=O)(=O)N3CCN(CCCCc4cn(CCOCCOCCNc5cccc6c5C(=O)N(C5CCC(=O)NC5=O)C6=O)nn4)CC3)cc2)nc1C(=O)Nc1cccnc1 (centres undefined)
4. Nc1ncc(-c2ccc(S(=O)(=O)N3CCN(CCCCc4cn(CCOCCOCCOCCOCCOCCNc5cccc6c5C(=O)N(C5CCC(=O)NC5=O)C6=O)nn4)CC3)cc2)nc1C(=O)Nc1cccnc1 (centres undefined)

1. 86
2. 25.9
3. 88.3
4. 90.8

Hey, quick one: what's Activity for each of these?
1. Nc1ncc(-c2ccc(S(=O)(=O)N3CCN(CCCCc4cn(CCOCCOCCOCCNc5cccc6c5C(=O)N(C5CCC(=O)NC5=O)C6=O)nn4)CC3)cc2)nc1C(=O)Nc1cccnc1 (centres undefined)
2. Nc1ncc(-c2ccc(S(=O)(=O)N3CCN(CCc4cn(CCOCCOCCNc5cccc6c5C(=O)N(C5CCC(=O)NC5=O)C6=O)nn4)CC3)cc2)nc1C(=O)Nc1cccnc1 (centres undefined)

1: 89.7; 2: 79.5

Give a short answer stating reported Activity for Nc1ncc(-c2ccc(S(=O)(=O)N3CCN(Cc4cn(CCOCCOCCOCCOCCOCCNc5cccc6c5C(=O)N(C5CCC(=O)NC5=O)C6=O)nn4)CC3)cc2)nc1C(=O)Nc1cccnc1 (centres undefined) . 63.8
